Biological target: T1, full-length human GIPR with an N-terminal FLAG tag (human, UniProt P48546 22-466)
T1 sequence (looked up): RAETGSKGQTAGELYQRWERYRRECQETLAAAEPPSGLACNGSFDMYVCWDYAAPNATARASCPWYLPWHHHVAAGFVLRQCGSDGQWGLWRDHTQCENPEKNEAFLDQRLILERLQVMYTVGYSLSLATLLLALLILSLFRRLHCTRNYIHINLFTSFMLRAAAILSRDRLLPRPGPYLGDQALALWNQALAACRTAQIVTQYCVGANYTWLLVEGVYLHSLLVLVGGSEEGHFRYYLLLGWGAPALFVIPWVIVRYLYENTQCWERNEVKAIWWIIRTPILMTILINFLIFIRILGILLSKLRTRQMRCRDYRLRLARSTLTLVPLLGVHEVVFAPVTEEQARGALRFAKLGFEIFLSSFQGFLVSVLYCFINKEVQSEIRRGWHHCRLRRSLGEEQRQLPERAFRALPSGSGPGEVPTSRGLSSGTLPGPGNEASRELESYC
Test: cell-based or functional assay
Starred links: 1 amine or outer side, 2 acyl side, 3 side chain; linkers in the order of their positions; H or OH if unused. Non-standard residues stand in square brackets, D forms with d. Groups on a side chain read outwards from the residue. No end group written: not given here. *: point of attachment. 2OEGgEgE‑C18 diacid = O=C(O)CCCCCCCCCCCCCCCCC(=O)N[C@@H](CCC(=O)N[C@@H](CCC(=O)NCCOCCOCC(=O)NCCOCCOCC(=O)*)C(=O)O)C(=O)O; C17 diacid = O=C(O)CCCCCCCCCCCCCCCC(=O)*; γGlu = O=C(O)[C@H](CCC(=O)[*:2])N[*:1]; NMeY = CN[C@@H](Cc1ccc(O)cc1)C(=O)O; AEEA = NCCOCCOCC(=O)O; Aib = CC(C)(N)C(=O)O
Quick reference: Human GIPR cAMP EC50, HEK293T of the listed items.

Below, each entry is followed by its recorded Human GIPR cAMP EC50, HEK293T result.
Binder	Human GIPR cAMP EC50, HEK293T
[NMeY][Aib]EGTFISDYSIALDR[Aib]K([AEEA-AEEA-γGlu-γGlu-C17 diacid])Q[Aib]NFVNWLLAQSPSSGAPPPS-NH2 [Compound No. 11]	0.3 pM
YXEGTFISDYSIAXDRXAQRDFVEWLLAQSPG (N-methyl Tyr 1; Aib at 2,17; Lys(G5-C18 diacid) at 14; C-terminal OH) [Compound No. 120]	0.3 pM
YXEGTFISDYSIAXDRXAQXDFVNWLLAQSPSSGAPPPS (N-methyl Tyr 1; Aib at 2,17,20; Lys(G5-C18 diacid) at 14; C-terminal NH2) [Compound No. 38]	0.6 pM
YXEGTFISDYSIXLDRXAQXDFVNWLLAQSPG (N-methyl Tyr 1; Aib at 2,13,20; Lys(G5-C18 diacid) at 17; C-terminal OH) [Compound No. 88]	0.4 pM

Q. Indicate the recorded Human GIPR cAMP EC50, HEK293T value for this binder: [NMeY][Aib]EGTFISDYSIALDR[Aib]AQ[Aib]NFVNWLLAK(2OEGgEgE‑C18 diacid)SPSSGAPPPS-NH2 [Compound No. 59]
A. 0.5 pM

// data source = patent US20230143604A1
